# Test details: folding enthalpy; higher = less favourable; fluorescence melt of hairpins on a sequencing array, two-state fit
# Setup conditions: sodium 0.088 M
Form field: folding enthalpy (one value per entry).
Numeric only. Scale: kcal/mol

Known folding enthalpy results, listed for orientation:
INSERT INTO assay_data (record_sequence, unit_abbreviation, measurement) VALUES
  ('GTCGTCGAAAGACAAGAC ((((((....)))..)))', 'kcal/mol', -20),
  ('GCTGTAACGAAAGTTAGC (((..(((....))))))', 'kcal/mol', -20.5),
  ('GCTGCGCGAAAGCCGAGC (((..((....))..)))', 'kcal/mol', -17),
  ('GGTCAAGGAAACCTGACC (((((.(....).)))))', 'kcal/mol', -30.5);

folding enthalpy for GCACGCGGAAACGCGTAC (.(((((....))))).) ?
-10.1

folding enthalpy for GCTCAGCGAAAGCTCCGC ((..(((....)))..)) ?
-8.07
